Entry source: patent EP4438624A1

- target under test: T1, recombinant purified human Nectin-4-Fc fusion protein (human, UniProt Q96NY8 32-349)
- T1 construct: Bought ('Aero Biosystems' as printed); not shown: Fc part of the bought fusion protein; captured by anti-human IgG Fc sensors
- T1 sequence: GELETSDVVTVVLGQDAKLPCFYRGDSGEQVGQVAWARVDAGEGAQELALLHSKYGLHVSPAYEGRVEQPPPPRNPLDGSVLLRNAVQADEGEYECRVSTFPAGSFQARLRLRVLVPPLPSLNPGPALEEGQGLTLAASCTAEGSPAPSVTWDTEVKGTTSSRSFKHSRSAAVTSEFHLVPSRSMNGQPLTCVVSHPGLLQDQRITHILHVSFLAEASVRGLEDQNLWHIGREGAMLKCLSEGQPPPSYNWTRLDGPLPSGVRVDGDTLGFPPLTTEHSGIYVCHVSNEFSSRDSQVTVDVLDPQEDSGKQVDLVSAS
- procedure details: BLI (Octet), Nectin-4-Fc on anti-human Fc sensors, run 1
property measured: pKd
Please report pKd as the negative decimal logarithm of the molar concentration, giving only the number.

binder: LV1181 (VHH, Llama-derived anti-Nectin-4 VHH) VHH: EVQLVESGGGLVQAGGSLRLSCAASGSISSINLMGWHRQAPGKQRELVATITRGGSTNYADSVKGRFTISRDNGKNTVYLQMNSLKPEDTAAYYCVDVEPSGMGWRDYWGQGTQVTVSS
pKd: 9.10
--
binder: LV1185 (VHH, Llama-derived anti-Nectin-4 VHH) VHH: EVQLVESGGGLVQAGGSLRLSCAASRSTFSLNIMGWYRQAPGKQREYVATITTGGSTNYADSVRGRFTISRDNAEDTVYLQMNSLKPEDTAVYYCTAELVRRGPTTYWGRGTQVTVSS
pKd: 8.44
--
binder: LV1186 (VHH, Llama-derived anti-Nectin-4 VHH) VHH: EVQLVESGGGLVQAGGSLRLSCAASRSTFSLNIMGWYRQAPGKQREYVATITSGGSTNYADSVRGRFTISRDNAENTVYLQMDSLKPEDTAVYYCTAELVRRGPTTYWGRGTQVTVSS
pKd: 8.41
--
binder: LV1184 (VHH, Llama-derived anti-Nectin-4 VHH) VHH: EVQLVESGGGLVQAGGSLRLSCAASGSISSINLMGWFRQAPAKQRELVTSISPGGSVRYADSVKGRFTISRDVAKNTVDLQMNSLKPEDTAVYYCAAESERTYYFDSWGQGTQVTVSS
pKd: 9.29
--
binder: LV1183 (VHH, Llama-derived anti-Nectin-4 VHH) VHH: EVQLVESGGGLVQAGGSLRLSCAASGSIFDINLMGWYRQAPGKLRELVASITRGGSTWYVDSVKGRFIISRDSAKNTVYLQMNSLKPGDTAVYYCAAESIGSYTFDRWGQGTQVTVSS
pKd: 8.24

# input for lookup
pKd reported for this binder LV1187 (VHH, Llama-derived anti-Nectin-4 VHH) VHH: EVQLVESGGGLVQAGGFLRLSCAASRSVFRINVMGWYRQAPGKQRELVAGITSGGSRRLADSVKGRFTISRDNAKNTVYLQMNSLKPEDTAVYYCFAEAVVGDEPYWGQGTQVTVSS : 8.28
